target: T1, SARS-CoV-2 receptor binding domain (RBD), wild type, His-tagged (SARS-CoV-2, UniProt P0DTC2 319-541); test: method and format not given
T1 construct: domain: RBD; also called His-tagged RBD; BEI NR52309
OUTCOME MEASURE: Kd (nM)
Field: numeric (nM). Do not append units.

Prompt: Need Kd, item mAb 349 (antibody, V domains shown, also called IgG 349; Antibody 349) VH: EVQLLESGGGLVQPGGSLRLSCAASGFTFSNYGMHWVRQAPGKGLEWVSGISSAGSITNYADSVKGRFTISRDNSKNTLYLQMNSLRAEDTAVYYCAGNHAGTTVTSEYFQHWGQGTLVTVSS VL: DIQMTQSPSSLSASVGDRVTITCRASQSISSWLAWYQQKPGKAPKLLIYDTSNLETGVPSRFSGSGSGTDFTLTISSLQPEDFATYYCQQSYTTPWTFGQGTRLEIKR
Response: 74

Prompt: GET /values?readout=Kd&item= mAb 108 (antibody, V domains shown) VH: QVQLVQSGAEVKKPGASVKVSCKASGYIFSRYAIHWVRQAPGQGLEWMGWMNPISGNTDYAPNFQGRVTMTRDTSTSTVYMELSSLRSEDTAVYYCAKDGSQLAYLVEYFQHWGQGTLVTVSS VL: DIQMTQSPSSLSASVGDRVTITCRASQVITNNLAWYQQKPGKAPKLLIYDASTLETGVPSRFSGSGSGTDFTLTISSLQPEDFATYYCQQSYTFPYTFGQGTKVEIKR
Response: 72

Prompt: Need Kd, item mAb 64 (antibody, V domains shown, also called IgG 64; Antibody 64) VH: EVQLLESGGGLVQPGGSLRLSCAASGFPFSQHGMHWVRQAPGKGLEWVSAIDRSGSYIYYADSVKGRFTISRDNSKNTLYLQMNSLRAEDTAVYYCARDTYGGKVTYFDYWGQGTLVTVSS VL: DIQMTQSPSSLSASVGDRVTITCRASQGISSHLAWYQQKPGKAPKLLIYDASNLETGVPSRFSGSGSGTDFTLTISSLQPEDFATYYCQQTYSTPWTFGQGTKVEIKR
Response: 97

Reference for the values: patent US20250002564A1
